# assayed_system: RARγ (Homo sapiens, UniProt P13631)
# Construct: % Efficiency γ; other: percentage of maximum compared to standard TTNPB
# Sequence (P13631 185-454 limits assumed): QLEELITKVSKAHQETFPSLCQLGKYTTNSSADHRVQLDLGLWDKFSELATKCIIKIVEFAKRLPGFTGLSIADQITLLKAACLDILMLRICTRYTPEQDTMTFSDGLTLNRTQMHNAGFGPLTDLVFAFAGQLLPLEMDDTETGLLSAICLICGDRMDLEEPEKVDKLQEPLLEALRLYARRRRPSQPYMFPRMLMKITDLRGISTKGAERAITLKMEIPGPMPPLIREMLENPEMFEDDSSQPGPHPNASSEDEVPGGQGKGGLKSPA
# procedure_summary: chimeric receptor transactivation assay, RARγ
# test_context: chimeric receptor transactivation; read-out: RAR EC50 γ
recorded_endpoint: pEC50
Numbers only, as −log10 of the molar value.

Worked examples follow.
| compound | pEC50 |
| --- | --- |
| COc1cc2c(cc1C(/C=C/c1ccc(C(=O)O)cc1)=N\O)C(C)(C)CCC2(C)C | 7.08 |
| Cc1cc2c(cc1C(C=Cc1ccc(C(=O)O)cc1)=NO)C(C)(C)CCC2(C)C [drawing 36] | 7.64 |
| CC1(C)CCSc2ccc(C(/C=C/c3ccc(C(=O)O)cc3F)=N/O)cc21 | 8.00 |
| CC1=CCC(C)(C)c2cc(C(/C=C/c3ccc(C(=O)O)cc3F)=N/O)ccc21 | 8.70 |
| CC1(C)CCSc2ccc(C(C=Cc3ccc(C(=O)O)cc3)=NO)cc21 [drawing 20] | 7.82 |

Each of the following entries comes with a recorded value; kindly state pEC50 for each.
1. CC1=CCC(C)(C)c2cc(C(/C=C/c3ccc(C(=O)O)cc3F)=N\O)ccc21
2. CC1(C)CC(C)(C)c2cc(C(C=Cc3ccc(C(=O)O)cc3)=NO)ccc2O1 [drawing 25]
3. CCCCCCCN1C(=O)CC(C)(C)c2cc(C(C=Cc3ccc(C(=O)O)cc3)=NO)ccc21
4. CC1(C)CC(C)(C)c2cc(C(C=Cc3ccc(C(=O)O)cc3)=NO)ccc21 [drawing 30]
5. CC1(C)CCCc2ccc(C(C=Cc3ccc(C(=O)O)cc3)=NO)cc21 [drawing 12]
6. CC1=CCC(C)(C)c2cc(C(/C=C/c3ccc(C(=O)O)cc3)=N/O)ccc21
7. CC1(C)CCCc2ccc(C(/C=C/c3ccc(C(=O)O)cc3F)=N\O)cc21
8. COc1cc2c(cc1C(/C=C/c1ccc(C(=O)O)cc1)=N/O)C(C)(C)CCC2(C)C

Reply text:
7.96
7.24
8.00
9.70
10.05
9.52
7.85
7.72

====

Protein target, amino acids: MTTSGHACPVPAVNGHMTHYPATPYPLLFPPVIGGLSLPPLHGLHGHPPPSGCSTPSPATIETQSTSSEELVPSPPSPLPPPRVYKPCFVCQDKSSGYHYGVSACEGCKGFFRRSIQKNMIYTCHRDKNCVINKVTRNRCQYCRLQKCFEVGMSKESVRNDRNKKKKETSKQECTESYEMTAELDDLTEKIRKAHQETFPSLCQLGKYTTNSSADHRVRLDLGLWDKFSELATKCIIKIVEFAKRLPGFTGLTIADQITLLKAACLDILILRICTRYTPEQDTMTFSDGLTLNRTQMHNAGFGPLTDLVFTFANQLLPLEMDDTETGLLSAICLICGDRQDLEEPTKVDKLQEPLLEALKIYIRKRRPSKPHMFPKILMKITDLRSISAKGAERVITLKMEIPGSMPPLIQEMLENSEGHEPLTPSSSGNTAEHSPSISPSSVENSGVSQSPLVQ
The threshold is 5 µM. Values of Ki beneath it are tagged 1 (yes); values meeting or exceeding it are tagged 0 (no).

Examples with answers:
| molecule | assigned_class |
| --- | --- |
| CC1(C)CCCc2cc(C(C=Cc3ccc(C(=O)O)cc3)=NO)ccc21 [drawing 17] | 0 (no) |
| CC1(C)CCSc2ccc(C(C=Cc3ccc(C(=O)O)cc3)=NO)cc21 [drawing 18] | 1 (yes) |
| CC1(C)CCCc2ccc(C(C=Cc3ccc(C(=O)O)cc3)=NO)cc21 [drawing 12] | 1 (yes) |
| CC1(C)CCC(C)(C)c2cc(C(C=Cc3ccc(C(=O)O)cc3F)=NO)ccc21 [drawing 11] | 0 (no) |
| Cc1cc2c(cc1C(C=Cc1ccc(C(=O)O)cc1)=NO)C(C)(C)CCC2(C)C [drawing 36] | 0 (no) |
| CC1(C)CCC(C)(C)c2cc(C(C=Cc3ccc(C(=O)O)cc3)=NO)ccc21 [drawing 9] | 1 (yes) |
| CC1(C)CCCc2cc(C(C=Cc3ccc(C(=O)O)cc3)=NO)ccc21 [drawing 16] | 0 (no) |
| CC1=CCC(C)(C)c2cc(C(/C=C/c3ccc(C(=O)O)cc3)=N/O)ccc21 | 1 (yes) |

We now examine a further molecule.
Inquiry: # TODO verify Ki < 5 µM strictly for this molecule: CC1(C)CC(C)(C)c2cc(C(C=Cc3ccc(C(=O)O)cc3)=NO)ccc21 [drawing 31]
Reply text: 0 (no)

====

Exercise: for every item that follows, state its recorded EC50.
# assayed_system: RARγ (Homo sapiens, UniProt P13631)
# Construct: % Efficiency γ; other: percentage of maximum compared to standard TTNPB
# procedure_summary: chimeric receptor transactivation assay, RARγ
# test_context: chimeric receptor transactivation; read-out: RAR EC50 γ
# Method: The compounds of the invention were tested in certain assays for activity as agonists of RAR and RXR retinoid receptors. […] Efficacy in a transactivation assay is expressed as a percentage of the maximum potency attained by the compound compared to a standard which, in this case, is the compound 4-[(1E)-2-(5,6,7,8-tetrahydro-5,5,8,8-tetramethyl-2-naphthalenyl)-1-propenyl]-benzoic acid. […]
Answers are plain numbers, in nM.

Worked examples follow.
| compound | EC50 (nM) |
| --- | --- |
| CC1(C)CCC(C)(C)c2cc(C(C=Cc3ccc(C(=O)O)cc3F)=NO)ccc21 [drawing 11] | 0.85 |
| CC1(C)CCC(C)(C)c2cc(C(C=Cc3ccc(C(=O)O)cc3)=NO)ccc21 [drawing 9] | 0.37 |
| Cc1cc2c(cc1C(C=Cc1ccc(C(=O)O)cc1)=NO)C(C)(C)CCC2(C)C [drawing 37] | 35 |

Consider the additional compound presented here.
Inquiry: Could you share which EC50 value was measured for CC1(C)CCCc2ccc(C(C=Cc3ccc(C(=O)O)cc3)=NO)cc21 [drawing 14] ?
Reply text: 3

====

Exercise: for every item that follows, state its recorded % Efficiency β.
# assayed_system: UniProt P10826
# procedure_summary: chimeric receptor transactivation assay, RARβ
# Assay type: cell-based
# test_context: percentage of maximum compared to standard TTNPB
Give bare numbers, in %.

Worked examples follow.
| molecule | assayed_system | % Efficiency β [%] |
| --- | --- | --- |
| CC1(C)CCC(C)(C)c2cc(C(C=Cc3ccc(C(=O)O)cc3)=NO)ccc21 [drawing 8] | UniProt P10826 | 102 |
| CC1(C)CC(C)(C)c2cc(C(C=Cc3ccc(C(=O)O)cc3F)=NO)ccc21 | UniProt P10826 | 79 |

Each of the following entries comes with a recorded value; kindly state % Efficiency β for each.
1. CC1=CCC(C)(C)c2cc(C(/C=C/c3ccc(C(=O)O)cc3F)=N\O)ccc21
2. CC1(C)CCCc2ccc(C(/C=C/c3ccc(C(=O)O)cc3F)=N/O)cc21
3. CC1(C)CCC(C)(C)c2cc(C(C=Cc3ccc(C(=O)O)cc3F)=NO)ccc21 [drawing 11]
4. CC1(C)CC(C)(C)c2cc(C(C=Cc3ccc(C(=O)O)cc3)=NO)ccc21 [drawing 31]
5. CC1(C)CCCc2cc(C(C=Cc3ccc(C(=O)O)cc3)=NO)ccc21 [drawing 17]
6. CC1=CCC(C)(C)c2cc(C(/C=C/c3ccc(C(=O)O)cc3)=N\O)ccc21
7. CC1=CCC(C)(C)c2cc(C(/C=C/c3ccc(C(=O)O)cc3F)=N/O)ccc21
8. CC1(C)CCC(C)(C)c2cc(C(C=Cc3ccc(C(=O)O)cc3F)=NO)ccc21 [drawing 10]

Reply text:
[92, 133, 85, 118, 60, 104, 86, 84]

Inquiry: Could you share which % Efficiency β value was measured for CC1=CCC(C)(C)c2cc(C(/C=C/c3ccc(C(=O)O)cc3)=N/O)ccc21 ?
Reply text: 95

====

Exercise: for every item that follows, state its recorded pEC50.
# assayed_system: RARβ (Homo sapiens, UniProt P10826)
# procedure_summary: chimeric receptor transactivation assay, RARβ
# test_context: chimeric receptor transactivation; read-out: RAR EC50 β
Numbers only, as −log10 of the molar value.

Worked examples follow.
| molecule | assayed_system | pEC50 |
| --- | --- | --- |
| CC1(C)CCSc2ccc(C(C=Cc3ccc(C(=O)O)cc3)=NO)cc21 [drawing 20] | RARβ (Homo sapiens, UniProt P10826) | 6.99 |
| CC1(C)CCC(C)(C)c2cc(C(C=Cc3ccc(C(=O)O)cc3F)=NO)ccc21 [drawing 10] | RARβ (Homo sapiens, UniProt P10826) | 7.28 |

Consider the additional molecule presented here.
Inquiry: Could you share which pEC50 value was measured for CC1(C)CCCc2ccc(C(C=Cc3ccc(C(=O)O)cc3)=NO)cc21 [drawing 14] ?
Reply text: 6.36

Measured values drawn from patent US7476673B2 for this set.
